System: MCF-7 cell line
testProtocol: MTT cytotoxicity assay, MCF-7
Format: cell-based, human
conditionNotes: Homo sapiens, MCF7; MTT assay; mean ± SD of three experiments
quantity: IC50

Req: Specify IC50 for "CCOC(=O)c1ccc(/N=C2\C(=O)Nc3ccc(F)cc32)cc1" and stop.
Resp: 3.81 µM

Req: Specify IC50 for O=C1Nc2ccccc2C1=Nc1ccc(C(=O)NNC(=S)Nc2ccccc2)cc1 [Compound 17a] and stop.
Resp: 1.44 µM

Req: Specify IC50 for "CNC(=S)NNC(=O)c1ccc(N=C2C(=O)Nc3ccc(F)cc32)cc1" and stop.
Resp: 0.99 µM

Req: Specify IC50 for O=C1Nc2ccccc2C1=Nc1ccc(C(=O)NN2C(=O)c3ccccc3C2=O)cc1 [Compound 12a] and stop.
Resp: 78.4 µM

Req: Specify IC50 for "O=C1Nc2ccccc2/C1=N/c1ccc(C(=O)O)cc1" and stop.
Resp: 51.6 µM

Req: Specify IC50 for O=C1Nc2ccccc2C1=Nc1ccc(-c2n[nH]c(=S)o2)cc1 [Compound 15a] and stop.
Resp: 2.77 µM

Req: Specify IC50 for "NNC(=O)c1ccc(/N=C2\C(=O)Nc3ccc(F)cc32)cc1" and stop.
Resp: 40.7 µM
